Molecular target: P2X4 (Homo sapiens)
Sequence (Q99571 whole entry): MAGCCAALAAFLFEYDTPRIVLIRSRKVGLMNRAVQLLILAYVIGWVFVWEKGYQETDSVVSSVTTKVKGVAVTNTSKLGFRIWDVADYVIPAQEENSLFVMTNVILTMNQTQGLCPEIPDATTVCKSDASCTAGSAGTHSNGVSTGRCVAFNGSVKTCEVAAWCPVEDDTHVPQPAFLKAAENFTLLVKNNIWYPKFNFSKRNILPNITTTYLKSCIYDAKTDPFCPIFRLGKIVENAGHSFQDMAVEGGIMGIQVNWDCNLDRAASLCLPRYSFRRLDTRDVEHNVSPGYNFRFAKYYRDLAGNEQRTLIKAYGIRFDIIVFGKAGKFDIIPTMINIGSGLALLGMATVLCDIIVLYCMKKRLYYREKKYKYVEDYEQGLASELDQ
Experiment: Assay A: human P2X4 receptor cell line, FLIPR calcium assay (Fluo-8, agonist Bz-ATP at EC80)
Type: cell-based
Design: host or cells: HEK 293 (recombinant, constitutively expressing; with mitochondrial photina in Assay B)
Settings: percentage of maximal inhibition; HEK human P2X4 cells, Fluo-8 FLIPR; read-out: human P2X4 Assay A avg Efficacy
Assay endpoint: Emax (%)
Answers are plain numbers, in %.

Use these answered entries as a reference point.
Compound	Measured target	Units	Numeric result
NS(=O)(=O)c1cc(NC(=O)Cc2ccccc2Cl)ccc1Oc1cccc(N2CCOCC2=O)c1	P2X4 (Homo sapiens)	%	100
NS(=O)(=O)c1cc(NC(=O)Cc2ccccc2Cl)ccc1Oc1cccc(C(=O)N2CCOCC2)c1	P2X4 (Homo sapiens)	%	85
NS(=O)(=O)c1cc(NC(=O)Cc2ccccc2Cl)ccc1Oc1ccccn1	P2X4 (Homo sapiens)	%	93

Answer for every listed entry: what is its Emax? The entries follow.
1. NS(=O)(=O)c1cc(NC(=O)Cc2ccccc2Cl)ccc1Oc1ccc(Cl)nc1
2. COc1ccc(CC(=O)Nc2ccc(Oc3ccc(Cl)cc3)c(S(N)(=O)=O)c2)c(Cl)c1
3. CC1(COc2ccc(NC(=O)Cc3ccccc3Cl)cc2S(N)(=O)=O)CCOCC1
4. NS(=O)(=O)c1cc(NC(=O)Cc2ccccc2Cl)ccc1Oc1cccc(OC(F)F)c1
5. Cc1ccc(F)c(CC(=O)Nc2ccc(Oc3cccc(Cl)c3)c(S(N)(=O)=O)c2)c1Cl
6. CC(C(=O)Nc1ccc(Oc2cccc(Cl)c2)c(S(N)(=O)=O)c1)c1c(Cl)cccc1Cl (stereo not drawn)
7. NS(=O)(=O)c1cc(NC(=O)Cc2cccc(C(F)(F)F)c2Cl)ccc1Oc1cccc(Cl)c1
8. NS(=O)(=O)c1cc(NC(=O)Cc2ccccc2OC(F)F)ccc1Oc1cccc(Cl)c1

**A:**
[43, 79, 90, 82, 83, 90, 86, 88]

Answer for every listed entry: what is its Emax? The entries follow.
1. NS(=O)(=O)c1cc(NC(=O)Cc2ccccc2Cl)ccc1Oc1cnc(Cl)c(F)c1
2. NS(=O)(=O)c1cc(NC(=O)Cc2ccccc2Cl)ccc1Oc1cccc(N2CCCCC2=O)c1
3. NS(=O)(=O)c1cc(NC(=O)Cc2cccc(F)c2Cl)ccc1Oc1cccc(Cl)c1
4. NS(=O)(=O)c1cc(NC(=O)Cc2ccccc2Cl)cc(F)c1Oc1cccc(Cl)c1
5. [2H]c1c([2H])c([2H])c(Oc2ccc(NC(=O)Cc3ccccc3Cl)cc2S(N)(=O)=O)c([2H])c1[2H]
6. NS(=O)(=O)c1cc(NC(=O)Cc2ccccc2Cl)ccc1OCc1ccccc1
7. NS(=O)(=O)c1cc(NC(=O)Cc2ccccc2Cl)ccc1Oc1cccc(N2CCCC2=O)c1
8. Cc1ccc(CC(=O)Nc2ccc(Oc3cccc(Cl)c3)c(S(N)(=O)=O)c2)c(Cl)c1

**A:**
55
82
95
57
89
96
94
64

Answer for every listed entry: what is its Emax? The entries follow.
1. CC(C)(O)c1cccc(Oc2ccc(NC(=O)Cc3ccccc3Cl)cc2S(N)(=O)=O)c1
2. NS(=O)(=O)c1cc(NC(=O)Cc2ccccc2Cl)ccc1Oc1cc(Cl)ccn1
3. NS(=O)(=O)c1cc(NC(=O)Cc2ccccc2Cl)ccc1Oc1ccccc1F
4. NS(=O)(=O)c1cc(NC(=O)Cc2ccccc2)cnc1Oc1cccc(C(F)(F)F)c1

**A:**
1: 104; 2: 89; 3: 90; 4: 74

Answer for every listed entry: what is its Emax? The entries follow.
1. NS(=O)(=O)c1cc(NC(=O)Cc2ccccc2Cl)ccc1OCc1cccnc1
2. NS(=O)(=O)c1cc(NC(=O)Cc2cc(Br)ccc2Cl)ccc1Oc1cccc(Cl)c1
3. NS(=O)(=O)c1cc(NC(=O)Cc2ccccc2Cl)ccc1Oc1cnc(Cl)c(Cl)c1

**A:**
1: 81; 2: 94; 3: 81
